# Tested on: U-251
# Measurement notes: NCI tumour cell line growth inhibition, 48 h
Activity calls are given as the source filed them. Rule as the data show it: active = GI50 up to about 1.1 µM and inactive = higher. Residues, ends and D or L forms follow the SMILES beside them. *: point of attachment. Boc = CC(C)(C)OC(=O)*
Your reply should match one of these outcome classes. yes = active, no = inactive

Hi team, can someone confirm the assay call for CC(=O)OCC1OC(n2c(=O)[nH]c(=O)c3sccc32)C(Br)C1OC(C)=O (centres undefined) ?
no

Queued: `CCOc1ccc(/C(C=O)=C(\Cl)c2ccc(OC)cc2)cc1`
no

Queued: `O=c1cc(/N=N\c2ccc(Cl)c(Cl)c2)[nH]c(=O)[nH]1`
no

Queued: O=C(CC(C(=O)c1ccco1)c1ccco1)c1ccco1 (centres undefined)
no

Queued: `O=C(N/N=C/c1cc(Br)cc(Br)c1O)c1ccccc1O`
yes

Queued: CC1C2(C)OC(=N)C(C#N)(C(c3ccco3)O2)C1(C#N)C#N (centres undefined)
no

Queued: COC(=O)CCC(C)[C@H]1CCC2C3C(C[C@H](OC(C)=O)[C@@]21C)[C@@]1(C)CCC2(C[C@H]1C[C@H]3OC(C)=O)OOC1(CCCCCCC1)OO2 (some centres undefined)
no

Queued: `Cc1nc2ccccc2c(=O)n1NC(=O)c1ccccc1O`
no

Queued: CC1CC(=O)Nc2ccc(/N=N/N(C)C)cc2N1C=O (centres undefined)
no

Queued: `O=C1C(N2CCN(c3ccccn3)CC2)=C(Cl)C(=O)c2ncccc21`
no

Queued: `COCCCNc1nc(N)c(C#N)c(C#N)c1C#N`
no

Queued: COc1ccc(-n2c(Cn3nnc(-c4cccnc4)n3)nn(C3OC(COC(=O)c4ccccc4)C(OC(=O)c4ccccc4)C3OC(=O)c3ccccc3)c2=S)cc1 (centres undefined)
no

Queued: C=CCOC(=O)C1=C(C)N=C2N[C@H](CCCCCCCCC)C[C@@H]3CCC1N23 (some centres undefined)
no

Queued: `O=c1[nH]c(=O)n([C@H]2C[C@@H](CO)[C@@H](O)C2)cc1I`
no

Queued: `Cn1nnnc1SC(F)(F)c1nc2ccccc2o1`
no

Queued: COc1cc2c(c3oc4c(O)cccc4c(=O)c13)CC(C(C)(O)CCl)O2 (centres undefined)
no

Queued: `O=[N+]([O-])c1ccc(NC(=S)Nc2ccccn2)cc1`
no

Queued: CC(C)(C)OC(=O)NC(Cc1ccc(O)cc1)C(=O)NC(CCCCN)C(=O)O (stereo not drawn) (Boc-Tyr-Lys-OH; configuration not given here)
no

Queued: Cc1cccc(C)c1NC(=O)/C(=N/NC(N)=S)C(C)C(=O)c1ccc(Cl)cc1 (centres undefined)
no

----------
# Tested on: T47D
# Measurement notes: NCI tumour cell line growth inhibition, 48 h
Activity calls are given as the source filed them. Cut-off read from the data, not from the text of the source: active = GI50 up to about 1.1 µM and inactive = higher.
Property: GI50

// returns reported GI50 for input `Cn1c(=O)[nH]c2nccnc2c1=O`
> 10 µM (inactive)

Queued: `CCOC(=O)c1[nH]cc(C)c1-c1cccn1-c1ccc(Cl)cc1[N+](=O)[O-]`
31 µM (inactive)

Queued: `O=C1CCCC/C1=C(\Br)I`
7 µM (inactive)

----------
Please go through the items and note down their GI50.
# System: NCI-H460
# Measurement notes: NCI tumour cell line growth inhibition, 48 h
Activity calls are given as the source filed them. Cut-off read from the data, not from the text of the source: active = GI50 up to about 1.1 µM and inactive = higher.

// returns reported GI50 for input `COc1ccc(-n2sc3ncccc3c2=O)cc1`
34.6 µM (inactive)

Queued: `O=S(=O)(c1ccccc1)c1ccc(/N=N/O)nc1`
> 100 µM (inactive)

Queued: `CN(C)CCCNC(=O)CNC(=O)c1cc(NC(=O)c2cc(NC(=O)c3cc(NC(=O)CCNC(=O)c4cc(NC(=O)c5cc(NC(=O)c6nccn6C)cn5C)cn4C)cn3C)cn2C)cn1C`
> 100 µM (inactive)

Queued: CCN1CCC(O)(C(C(=O)O)c2ccccc2)CC1 (stereo not drawn)
> 100 µM (inactive)

Queued: `Cc1ccc(-n2nncc2[Si](C)(C)C)s1`
> 100 µM (inactive)

Queued: CC(=O)OC1CC2(C)C(OC(C)=O)CC1C2(C)C (stereo not drawn)
> 100 µM (inactive)

Queued: COC(=O)C1C(=O)NC2(C)CC1c1ccccc1O2 (stereo not drawn)
> 100 µM (inactive)

Queued: CCC(C)N1CN(c2ccccc2)C2(CCN(CCCC3(c4ccc(F)cc4)OCCO3)CC2)C1=O (stereo not drawn)
14.8 µM (inactive)

----------
# Tested on: SK-OV-3
# Measurement notes: NCI tumour cell line growth inhibition, 48 h
Calls of active or inactive are those of the source. Rule as the data show it: active = GI50 up to about 1.1 µM and inactive = higher.
Please go through the items and note down their GI50.

// returns reported GI50 for input `O=C(CCc1nnc2s/c(=C\c3ccc(Cl)c(Cl)c3)c(=O)n12)Nc1ccc(Cl)c(Cl)c1`
> 100 µM (inactive)

Queued: `O=c1[nH]c2cc3cccnc3c(Cl)c2nc1C(F)(F)F`
57.3 µM (inactive)

Queued: CC(=O)O[C@H]1CCC2[C@@H]3CCC4Nc5[nH]ncc5C[C@]4(C)C3CC[C@@]21C (some centres undefined)
> 100 µM (inactive)

Queued: CCN1CCC(O)(C(C(=O)O)c2ccccc2)CC1 (centres undefined)
> 100 µM (inactive)

----------
Please go through the items and note down their GI50.
# Tested on: RXF 393
# Measurement notes: NCI tumour cell line growth inhibition, 48 h
Calls of active or inactive are those of the source. Cut-off read from the data, not from the text of the source: active = GI50 up to about 1.1 µM and inactive = higher.

What measured GI50 is associated with `CON(C)c1nc(N(C)OC)nc(N(C)OC)n1` on RXF 393?
> 10 µM (inactive)

Queued: `CC1=CC(=O)N(n2c(-c3ccccc3)n[nH]c2=O)C1=O`
> 100 µM (inactive)

Queued: COC(=O)C1C(=O)NC2(C)CC1c1ccccc1O2 (configuration not stated)
> 100 µM (inactive)

Queued: `Cc1ccc(S(=O)(=O)Nn2c(-c3ccccc3)c(C#N)c(-c3ccc(Cl)cc3)c(C#N)c2=O)cc1`
25.2 µM (inactive)

Queued: O=C(CC1(O)C(=O)Nc2c(Cl)cc(Cl)cc21)c1ccc(Br)cc1 (configuration not stated)
16 µM (inactive)

Queued: `CC1=NN(c2nc(N)nc(-c3ccccc3S(N)(=O)=O)n2)C(C)(C)C1`
14 µM (inactive)

Queued: `Cc1nc2ccccc2c(=O)n1NC(=O)c1ccccc1O`
> 100 µM (inactive)

Queued: CCc1cccc(C(C)C)c1NC(=O)C(=O)C(C(=O)C(=O)OC)c1nc2ccccc2nc1O (configuration not stated)
> 100 µM (inactive)

Queued: `COC(=O)c1cc(NC(=O)Cc2c[nH]c3ccccc23)cn1C`
> 100 µM (inactive)

Queued: CCCCCCCC/C=C(\Br)C(O)C(Br)Br (configuration not stated)
19.3 µM (inactive)

Queued: CCOC(=O)CCC1(C(=O)O[C@@H]2C[C@H](C)CC[C@H]2C(C)C)CCCCC1=O (some centres not stated)
55.7 µM (inactive)

Queued: NC(CCc1nc(-c2ccccc2)cs1)C(=O)O (configuration not stated)
> 100 µM (inactive)

----------
# System: DLD-1
# Measurement notes: NCI tumour cell line growth inhibition, 48 h
The source made the active and inactive calls. Cut-off read from the data, not from the text of the source: active = GI50 up to about 1.1 µM and inactive = higher.
Your reply should match one of these outcome classes. Yes = active, No = inactive

Hi team, can someone confirm the assay call for COc1ccc2c(c1)Oc1cc(O)ccc1[C@H]2c1ccccc1C(=O)NC(C)c1ccccc1 (stereo partly drawn) ?
No

Queued: `CC(C)=CCOc1ccc(-c2coc3cc4c(c(O)c3c2=O)C=CC(C)(C)O4)cc1`
No

Queued: `C=CCN1COc2c(cc3c4c(cccc24)C(=O)O3)C1`
No

Queued: O=C1NCC2=C1CCC1c3ccccc3CCN21 (stereo not drawn)
No

Queued: `Cn1ccnc1CCc1ccc(Cl)cc1Cl`
No

Queued: CC(=O)OC1CCC2(C)C3CCC4(C)C(c5ccc(=O)oc5)CC5OC54C3CCC2(O)C1 (stereo not drawn)
Yes

Queued: N#CC(C#N)=C1NC(=O)C(c2ccccc2)C(=O)N1 (stereo not drawn)
No

Queued: `Cc1ccc(NC(=O)CCC/C(CC(=O)c2ccc(Br)cc2)=N/NC(=O)CC#N)cc1`
No

Queued: `CN1C(=O)C(=CN)C(=O)N(C)C1=O`
No

Queued: CC(=O)CC(=O)OC1CC(C)CCC1C(C)C (stereo not drawn)
No

Queued: `Cc1nc2c(n1CCO)C(=O)c1ccccc1C2=O`
No

Queued: `CCOc1ccccc1NC(=O)C(=O)Cc1nc2ccccc2s1`
No

Queued: `O=C(/C=C/c1ccco1)c1ccc(NCc2nc3ccccc3[nH]2)cc1`
No

Queued: `O=c1[nH]c(=O)n([C@H]2C[C@@H](CO)[C@@H](O)C2)cc1I`
No

Queued: CCOC(=O)C1=C(C)CC2C(=O)OC(=O)C2C1(C)C (stereo not drawn)
No

Queued: `CCN(CC)CCNC(=O)c1nn(-c2ccc(Cl)cc2)c2c1CCc1cc(OC)ccc1-2`
No

Queued: COc1cc2c(cc1OC)C1C=NC(C(=O)O)(C2)c2ccccc21 (stereo not drawn)
No

Queued: `Cc1nc2c3c(ccc2nc1O)C(=O)c1ccccc1C3=O`
No
